So I've got a bunch of compounds here, and I need their IC50 values.
molecular target: EGFR^L858R (Homo sapiens, UniProt P00533, L858R); experiment: EGFR kinase assay (L858R)
Sequence (P00533 25-1210 L858R): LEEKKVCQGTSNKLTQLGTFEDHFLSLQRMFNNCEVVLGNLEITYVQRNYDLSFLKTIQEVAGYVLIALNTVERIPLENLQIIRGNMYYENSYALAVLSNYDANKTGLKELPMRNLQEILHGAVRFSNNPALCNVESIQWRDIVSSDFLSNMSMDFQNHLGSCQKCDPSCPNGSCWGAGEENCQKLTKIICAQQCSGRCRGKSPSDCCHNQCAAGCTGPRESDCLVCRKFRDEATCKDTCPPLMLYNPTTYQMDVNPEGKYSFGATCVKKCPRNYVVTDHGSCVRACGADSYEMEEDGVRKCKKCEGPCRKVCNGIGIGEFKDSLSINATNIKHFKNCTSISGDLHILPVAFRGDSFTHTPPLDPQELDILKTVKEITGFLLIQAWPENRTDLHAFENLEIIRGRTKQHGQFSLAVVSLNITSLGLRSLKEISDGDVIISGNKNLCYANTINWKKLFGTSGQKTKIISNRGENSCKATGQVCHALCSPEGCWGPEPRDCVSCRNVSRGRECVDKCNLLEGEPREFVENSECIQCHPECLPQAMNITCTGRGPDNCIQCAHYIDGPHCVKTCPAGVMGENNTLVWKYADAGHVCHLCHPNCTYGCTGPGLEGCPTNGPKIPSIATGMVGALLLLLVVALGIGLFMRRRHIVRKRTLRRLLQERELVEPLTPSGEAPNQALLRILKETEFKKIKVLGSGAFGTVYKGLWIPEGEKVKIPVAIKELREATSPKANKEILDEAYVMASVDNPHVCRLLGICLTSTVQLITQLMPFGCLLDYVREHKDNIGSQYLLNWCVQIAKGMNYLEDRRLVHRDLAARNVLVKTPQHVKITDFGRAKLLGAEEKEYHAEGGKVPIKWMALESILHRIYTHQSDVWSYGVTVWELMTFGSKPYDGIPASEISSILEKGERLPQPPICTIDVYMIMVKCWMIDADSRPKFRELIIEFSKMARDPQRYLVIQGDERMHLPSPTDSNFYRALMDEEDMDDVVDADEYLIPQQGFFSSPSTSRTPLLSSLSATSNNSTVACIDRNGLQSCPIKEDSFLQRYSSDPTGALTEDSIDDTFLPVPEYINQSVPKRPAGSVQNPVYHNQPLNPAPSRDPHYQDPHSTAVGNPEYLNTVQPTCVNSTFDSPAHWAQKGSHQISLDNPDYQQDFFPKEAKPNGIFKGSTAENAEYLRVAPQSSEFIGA
Give bare numbers, in nM.

For the 2 compounds below, give their IC50 values.
1. CC1(c2ccccc2)NC(=O)N(CC(=O)Nc2ccccc2F)C1=O (centres unmarked)
2. COc1ccc(NC(=O)CN2C(=O)NC(C)(c3ccccc3)C2=O)cc1OC (centres unmarked)

1. 170
2. 50

----------
system: A549, H1975, and PC9 cell lines; assay: MTT antiproliferative assay, average of the three NSCLC cell lines; conditions: Homo sapiens, read-out: IC50 (µM) Average
Consider the following molecules; for each one, report its IC50.
Numbers only, in µM.

>  <molecule>
COc1ccc(NC(=O)CN2C(=O)NC(C)(c3ccccc3)C2=O)cc1OC (stereo not drawn) [5a]

>  <unit label>
µM

>  <IC50>
4.79

$$$$
>  <molecule>
CC1(c2ccccc2)NC(=O)N(CC(=O)Nc2cccc(F)c2)C1=O (stereo not drawn) [5g]

>  <unit label>
µM

>  <IC50>
18.7

$$$$
>  <molecule>
CC1(c2ccccc2)NC(=O)N(CC(=O)Nc2ccc(F)c(F)c2F)C1=O (stereo not drawn) [5i]

>  <unit label>
µM

>  <IC50>
6.93

$$$$
>  <molecule>
COc1ccc(C)cc1NC(=O)CN1C(=O)NC(C)(c2ccccc2)C1=O (stereo not drawn) [5d]

>  <unit label>
µM

>  <IC50>
18.4

$$$$

State recorded IC50 for all listed molecules.
1. CC1(c2ccccc2)NC(=O)N(CC(=O)Nc2ccc(S(N)(=O)=O)cc2)C1=O (stereo not drawn) [5b]
2. CC1(c2ccccc2)NC(=O)N(CC(=O)Nc2ccc(F)c(Cl)c2)C1=O (stereo not drawn) [5k]

[9.29, 25.9]

----------
quantity name: melting point

>  <compound>
CC1(c2ccccc2)NC(=O)N(CC(=O)Nc2cccc(F)c2)C1=O (centres unmarked) [5g]

>  <result>
182 to 185 °C

$$$$
>  <compound>
CC1(c2ccccc2)NC(=O)N(CC(=O)Nc2ccc(F)c(F)c2F)C1=O (centres unmarked) [5i]

>  <result>
205 to 210 °C

$$$$
>  <compound>
COc1cccc(NC(=O)CN2C(=O)NC(C)(c3ccccc3)C2=O)c1 (centres unmarked) [5n]

>  <result>
148 to 151 °C

$$$$
>  <compound>
COc1ccc(C)cc1NC(=O)CN1C(=O)NC(C)(c2ccccc2)C1=O (centres unmarked) [5d]

>  <result>
170 to 173 °C

$$$$
>  <compound>
CC1(c2ccccc2)NC(=O)N(CC(=O)Nc2ccc(S(N)(=O)=O)cc2)C1=O (centres unmarked) [5b]

>  <result>
122 to 125 °C

$$$$

For every item in the list below, what is its measured melting point?
1. COc1ccccc1NC(=O)CN1C(=O)NC(C)(c2ccccc2)C1=O (centres unmarked) [5m]
2. CC1(c2ccccc2)NC(=O)N(CC(=O)Nc2ccc(F)c(F)c2)C1=O (centres unmarked) [5h]
3. COc1ccc(NC(=O)CN2C(=O)NC(C)(c3ccccc3)C2=O)c(C)c1 (centres unmarked) [5j]

1: 85 to 90 °C; 2: 195 to 198 °C; 3: 143 to 146 °C

----------
test system: A549, H1975, and PC9 cell lines; assay: MTT antiproliferative assay, average of the three NSCLC cell lines; conditions: Homo sapiens, read-out: IC50 (µM) Average
Task for the reader: assign each of the following compounds its reported IC50.
One number for each entry, in µM.

Solved cases below.
>  <compound>
C#Cc1cccc(Nc2ncnc3cc(OCCOC)c(OCCOC)cc23)c1 [Erlotinib, erlotinib, reference compound]

>  <unit label>
µM

>  <IC50>
11.3

$$$$
>  <compound>
CCOc1ccc(NC(=O)CN2C(=O)NC(C)(c3ccccc3)C2=O)cc1 (stereo not drawn)

>  <unit label>
µM

>  <IC50>
17.6

$$$$

Now consider a different compound.
For the record CC1(c2ccccc2)NC(=O)N(CC(=O)Nc2ccc(F)c(F)c2)C1=O (stereo not drawn) , what value of IC50 is listed for A549, H1975, and PC9 cell lines?
16.2
